- measurementProtocol: chemical genetic growth profiling, strain panel (AID 1159580);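 note: tested at 20 µM; growth read once vehicle control cultures reached saturation at 30 °C; 1 = growth at the plate median or of vehicle wells; lower values mean less growth of the strain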
- conditionDescription: S. cerevisiae deletion strains, growth OD, locus YNL153C, strain GIM3, stronger effect = lower value
The campaign covered roughly 5,500 compounds. About 2,000 (36%) were called active. About 18% were inconclusive and are not listed. The list shows a part of the results.
measureName: normalized growth

Exercise: Quick one: give measured normalized growth for CCC(=O)OCC(=O)[C@@]1(OC(=O)CC)[C@@H](C)CC2C3CCC4=CC(=O)C=C[C@]4(C)C3(F)[C@@H](O)C[C@@]21C (some centres not stated)
Key: 0.945 (inactive)

Exercise: Consider the molecule `CC(C)(C)c1ccc(Oc2ncccc2NC(=O)c2ccccc2C(F)(F)F)cc1` and give its recorded normalized growth.
Key: 1 (inactive)

Exercise: Input CCCCC(=O)O[C@]1(C(=O)CO)[C@@H](C)CC2C3CCC4=CC(=O)C=C[C@]4(C)[C@@]3(F)C(O)C[C@@]21C (some centres not stated) , output reported normalized growth.
Key: 0.923 (inactive)

Exercise: Write down normalized growth measured for item `CCCN(CC1CC1)c1nc(C)nc(Nc2c(Cl)cc(Cl)cc2Cl)c1Cl`
Key: 1.06 (inactive)

Exercise: Report measured normalized growth; entry is `CCSc1ncccc1C(=O)N[C@@H](CCSC)C(=O)OC`
Key: 0.999 (inactive)

Exercise: Give the measured normalized growth for `O=C(CCCN1CCC2(CC1)C(=O)NCN2c1ccccc1)c1ccc(F)cc1`
Key: 0.969 (inactive)

Exercise: Please look at this molecule and report its normalized growth: `C[N+]1(C)C[C@H](O)[C@H](C(=O)[O-])C1`
Key: 1.01 (inactive)

Exercise: For the molecule `NNC(=O)c1cccnc1Oc1ccccc1` , give its measured normalized growth value.
Key: 1.01 (inactive)

Exercise: Output normalized growth of `COC(OC)c1ccc(C#N)c(=S)[nH]1`
Key: 1 (inactive)

Exercise: Indicate its recorded normalized growth; the molecule in question is `NC(N)=NC(N)=Nc1cc(Cl)cc(Cl)c1`
Key: 0.983 (inactive)

Exercise: Identify measured normalized growth corresponding to `O=C(O)CCc1nc(-c2ccccc2)c(-c2ccccc2)o1`
Key: 0.964 (inactive)

Exercise: Dear colleague, please send me the reported normalized growth for COc1ccccc1N1CCN(C(=O)C(C)Nc2ccccn2)CC1 (configuration not stated) when you can.
Key: 1.02 (inactive)

Exercise: Please indicate normalized growth recorded for `Nc1ccc(S(=O)(=O)Nc2ncccn2)cc1`
Key: 0.987 (inactive)

Exercise: Answer with the recorded normalized growth of `Cc1ccc(Sc2ncccc2C(=O)NCC(=O)O)cc1` only.
Key: 1.03 (inactive)

Exercise: Assign normalized growth to the following record: `COc1cc(NC(=S)N2CCN(c3ccccc3OC)CC2)c(OC)cc1Cl`
Key: 0.98 (inactive)

Exercise: Consider the molecule `CC(=O)O[C@]1(C(C)=O)CC[C@H]2[C@@H]3C=C(Cl)C4=CC(=O)[C@@H]5C[C@@H]5[C@]4(C)[C@H]3CC[C@@]21C` and give its recorded normalized growth.
Key: 1.05 (inactive)

Exercise: // fetch normalized growth given entry `O=C1NCN(c2ccccc2)C12CCN(CCCC(c1ccc(F)cc1)c1ccc(F)cc1)CC2`
Key: 0.982 (inactive)

Exercise: Report normalized growth for `Cc1ccc(SC(=O)c2cccnc2Oc2ccccc2)cc1`
Key: 0.982 (inactive)

Exercise: Identify measured normalized growth corresponding to `COC(=O)c1cccnc1Sc1ccc(C)cc1`
Key: 0.991 (inactive)

Exercise: # return recorded normalized growth for entry `NC(N)=Nc1ccc(Cl)cc1`
Key: 1.02 (inactive)

Exercise: Annotate the molecule `CC[C@@]1(O)C(=O)OCc2c1cc1n(c2=O)Cc2cc3ccccc3nc2-1` with its measured normalized growth.
Key: 0.892 (inactive)

Exercise: Return reported normalized growth. Input molecule: `CN(C)C(=O)C(CCN1CCC(O)(c2ccc(Cl)cc2)CC1)(c1ccccc1)c1ccccc1`
Key: 1.01 (inactive)
